// data source = patent US4585773A

Parameter response vs control in vivo at 30 mg/kg: see the listing below.
# Assay: conscious rat diuretic screen of Lipschitz (Table I)
# Assay type: in vivo, rat (female Sprague Dawley; male Okamoto-Aoki)
# Condition set: Rattus norvegicus, po, 30 mg/kg oral; female Sprague Dawley rats; vs control; read-out: Na+ Ratio
Structures can show the parent of a compound that is named as a salt.
The answer is to be given in %; state only the numeric part.

Previously resolved entries follow.
Ask | Please indicate response vs control in vivo at 30 mg/kg recorded for NS(=O)(=O)c1cc2c(cc1Cl)CN(CCCN1CCN(Cc3ccccc3)CC1)C2=O [Example V]
Reply | 271

Ask | Return reported response vs control in vivo at 30 mg/kg. Input compound: NS(=O)(=O)c1cc2c(cc1Cl)CN(CCCN1CCN(c3cccc(Cl)c3)CC1)C2=O [Example II, hydrochloride hemihydrate]
Reply | 143

Ask | Identify measured response vs control in vivo at 30 mg/kg associated with Cl.NS(=O)(=O)c1cc2c(cc1Cl)CN(CCCN1CCN(c3ccccc3)CC1)C2=O.O [Example X, hydrochloride hydrate]
Reply | 163

Would you kindly look at the next entry?
Ask | Specify reported response vs control in vivo at 30 mg/kg for the compound shown: Cl.NS(=O)(=O)c1cc2c(cc1Cl)CN(CCCN1CCN(C(=O)c3ccccc3)CC1)C2=O.O [Example VII, hydrochloride monohydrate]
Reply | 140

###

# Tgt: α1
# Assay: in vitro α1 binding, [3H]WB-4101 (Table IV)
# Condition set: [3H]WB-4101, brain tissue, 50 mM Hepes.KOH, pH 7.4; read-out: α1 Binding IC50
Where a name gives a salt, the structure may show the parent alone.
Entries annotated with measured pIC50
Please express pIC50 as -log10 of the molar concentration.

As a guide, the following entries are already answered.
Ask | Specify pIC50 for `Cc1ccccc1N1CCN(CCCN2Cc3cc(Cl)c(S(N)(=O)=O)cc3C2=O)CC1` and stop.
Reply | 8.38

Ask | Kindly indicate its recorded pIC50. Item: NS(=O)(=O)c1cc2c(cc1Cl)CN(CCCN1CCN(c3cccc(C(F)(F)F)c3)CC1)C2=O [Example IX, hydrochloride hemihydrate]
Reply | 6.97

Further cases:
Ask | // fetch pIC50 given entry NS(=O)(=O)c1cc2c(cc1Cl)CN(CCCN1CCN(c3cccc(Cl)c3)CC1)C2=O [Example II, hydrochloride hemihydrate]
Reply | 8.12

###

# Assay: conscious rat diuretic screen of Lipschitz (Table I)
# Format: in vivo, rat (female Sprague Dawley; male Okamoto-Aoki)
# Condition set: Rattus norvegicus, po, 3 mg/kg oral; female Sprague Dawley rats; vs control; read-out: Na+ Ratio
Measurement type: response vs control in vivo at 3 mg/kg (%)
Numeric answer only, unit % assumed.

Ask | State its response vs control in vivo at 3 mg/kg: `COc1ccccc1N1CCN(CCCCN2Cc3cc(Cl)c(S(N)(=O)=O)cc3C2=O)CC1`
Reply | 113

Ask | Read the entry `Cc1ccccc1N1CCN(CCCN2Cc3cc(Cl)c(S(N)(=O)=O)cc3C2=O)CC1` and write its reported response vs control in vivo at 3 mg/kg.
Reply | 123

Ask | Complete the entry with response vs control in vivo at 3 mg/kg for Cl.NS(=O)(=O)c1cc2c(cc1Cl)CN(CCCN1CCN(C(=O)c3ccccc3)CC1)C2=O.O [Example VII, hydrochloride monohydrate]
Reply | 92

Ask | Find the measured response vs control in vivo at 3 mg/kg of `COc1ccccc1N1CCN(CCCN2Cc3cc(Cl)c(S(N)(=O)=O)cc3C2=O)CC1` and report it.
Reply | 108

Ask | Quickly give me recorded response vs control in vivo at 3 mg/kg for `NS(=O)(=O)c1cc2c(cc1Cl)CN(CCCN1CCN(C(=O)c3ccc(F)cc3)CC1)C2=O`
Reply | 98

Ask | Determine from records and report response vs control in vivo at 3 mg/kg for `NS(=O)(=O)c1cc2c(cc1Cl)CN(CCCN1CCN(Cc3ccccc3)CC1)C2=O`
Reply | 145

###

# Assay: conscious rat diuretic screen of Lipschitz (Table I)
# Type: in vivo, rat (female Sprague Dawley; male Okamoto-Aoki)
# Condition set: Rattus norvegicus, po, 3 mg/kg oral; female Sprague Dawley rats; vs control; read-out: Volume Ratio
Measurement type: response vs control in vivo at 3 mg/kg
Param answer (str): number followed by unit.

Ask | Annotate the molecule Cl.NS(=O)(=O)c1cc2c(cc1Cl)CN(CCCN1CCN(c3ccccc3)CC1)C2=O.O [Example X, hydrochloride hydrate] with its measured response vs control in vivo at 3 mg/kg.
Reply | 124%

###

Measured response vs control in vivo at 3 mg/kg values are reported for all entries that follow.
# Assay: conscious rat diuretic screen of Lipschitz (Table I)
# Assay type: in vivo, rat (female Sprague Dawley; male Okamoto-Aoki)
# Condition set: Rattus norvegicus, po, 3 mg/kg oral; female Sprague Dawley rats; vs control; read-out: Na+ Ratio
# Protocol: With respect to diuretic utility there can be mentioned the conscious rat diuretic screen of Lipschitz, et al. (J. Pharmacol. Exp. Therap. 79, 97-110 (1943)). In this test, dose response assays of diuretic, natruiretic and kaliuretic activity are determined by oral administration of the test substance. The compounds synthesized in Examples I-XI were tested for diuretic […]. The compound of Example I was tested as its monohydrochloride 2-propanolate hydrate, i.e. as C22 […] ClN4 O4 S.HCl. […]
Structures can show the parent of a compound that is named as a salt.
The reply should consist of the numeric value with the unit placed after it.

Ask | Output measured response vs control in vivo at 3 mg/kg for this item: Cl.N#Cc1cccnc1N1CCN(CCCN2Cc3cc(Cl)c(S(N)(=O)=O)cc3C2=O)CC1 [Example VI, hydrochloride]
Reply | 169%

Ask | Output response vs control in vivo at 3 mg/kg of Cl.NS(=O)(=O)c1cc2c(cc1Cl)CN(CCCN1CCN(c3ccccc3)CC1)C2=O.O [Example X, hydrochloride hydrate]
Reply | 138%

Turning now to a further record.
Ask | Tell me its response vs control in vivo at 3 mg/kg given NS(=O)(=O)c1cc2c(cc1Cl)CN(CCCN1CCN(c3cccc(C(F)(F)F)c3)CC1)C2=O [Example IX, hydrochloride hemihydrate] as the entry.
Reply | 127%

###

# Assay: conscious rat diuretic screen of Lipschitz (Table I)
# Assay type: in vivo, rat (female Sprague Dawley; male Okamoto-Aoki)
# Condition set: Rattus norvegicus, po, 3 mg/kg oral; female Sprague Dawley rats; vs control; read-out: K+ Ratio
Counter-ions that a name gives are not always drawn.
Measurement type: response vs control in vivo at 3 mg/kg (%)
Number only, in %; omit the unit.

Ask | Could you please provide reported response vs control in vivo at 3 mg/kg for NS(=O)(=O)c1cc2c(cc1Cl)CN(CCCN1CCN(C(=O)c3ccc(F)cc3)CC1)C2=O [Example VIII] ? Thanks!
Reply | 94

***
Ask | Input Cl.N#Cc1cccnc1N1CCN(CCCN2Cc3cc(Cl)c(S(N)(=O)=O)cc3C2=O)CC1 [Example VI, hydrochloride] , output reported response vs control in vivo at 3 mg/kg.
Reply | 98

Ask | Answer with reported response vs control in vivo at 3 mg/kg of COc1ccccc1N1CCN(CCCCN2Cc3cc(Cl)c(S(N)(=O)=O)cc3C2=O)CC1 [Example XI]
Reply | 111

Ask | Provide response vs control in vivo at 3 mg/kg value for the following compound: NS(=O)(=O)c1cc2c(cc1Cl)CN(CCCN1CCN(c3cccc(C(F)(F)F)c3)CC1)C2=O [Example IX, hydrochloride hemihydrate]
Reply | 106

###

# Assay: conscious rat diuretic screen of Lipschitz (Table I)
# Assay type: in vivo, rat (female Sprague Dawley; male Okamoto-Aoki)
# Condition set: Rattus norvegicus, po, 30 mg/kg oral; female Sprague Dawley rats; vs control; read-out: Na+ Ratio
Where a name gives a salt, the structure may show the parent alone.
Documented response vs control in vivo at 30 mg/kg across a set of molecules
Write the number in % without appending the unit.

Ask | Look up response vs control in vivo at 30 mg/kg of `Cc1ccccc1N1CCN(CCCN2Cc3cc(Cl)c(S(N)(=O)=O)cc3C2=O)CC1` and report it.
Reply | 121

Ask | Give the reported value of response vs control in vivo at 30 mg/kg for this record: `COc1ccccc1N1CCN(CCCCN2Cc3cc(Cl)c(S(N)(=O)=O)cc3C2=O)CC1`
Reply | 117

Ask | Quick one: give measured response vs control in vivo at 30 mg/kg for `COc1ccccc1N1CCN(CCN2Cc3cc(Cl)c(S(N)(=O)=O)cc3C2=O)CC1`
Reply | 134

Ask | Answer with the recorded response vs control in vivo at 30 mg/kg of NS(=O)(=O)c1cc2c(cc1Cl)CN(CCCN1CCN(c3cccc(C(F)(F)F)c3)CC1)C2=O [Example IX, hydrochloride hemihydrate] only.
Reply | 212

Ask | State, in one line, measured response vs control in vivo at 30 mg/kg of Cl.N#Cc1cccnc1N1CCN(CCCN2Cc3cc(Cl)c(S(N)(=O)=O)cc3C2=O)CC1 [Example VI, hydrochloride]
Reply | 204

***
Ask | Supply response vs control in vivo at 30 mg/kg value. Item: `COc1ccccc1N1CCN(CCCN2Cc3cc(Cl)c(S(N)(=O)=O)cc3C2=O)CC1`
Reply | 136

Ask | Report measured response vs control in vivo at 30 mg/kg; entry is `NS(=O)(=O)c1cc2c(cc1Cl)CN(CCCN1CCN(C(=O)c3ccc(F)cc3)CC1)C2=O`
Reply | 142
